- target desc: DLG1 PDZ2 (Homo sapiens, UniProt Q12959)
- Construct: human DLG1 PDZ2 aa 311–407 in a modified pRSET vector 40; made in house; host or cells: E. coli BL21 Gold (DE3)
- Sequence (Q12959 311-407): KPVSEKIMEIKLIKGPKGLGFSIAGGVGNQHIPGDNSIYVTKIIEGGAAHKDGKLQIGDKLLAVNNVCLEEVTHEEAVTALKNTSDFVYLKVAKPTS
- run description: Phosphomimetic ProP-PD selection with NGS
- Format: binding
- run parameters: mean of selections 1-3; bait DLG1 PDZ2
- Procedure: Phage selections were carried out for four rounds following a protocol by Huang and Sidhu (Huang & Sidhu, 2011) with minor modifications. Non‐specific binding phage was removed by pre‐selections against immobilized GST throughout the selection. […] The naïve library and the enriched phage pools of the third day of selection were amplified and barcoded by PCR and analyzed by NGS as described elsewhere (McLaughlin & Sidhu, 2013; Ivarsson et al, 2014). […]
measured quantity: Mean fraction #NGS counts wt peptide / total counts selection

chain	obs value
LRLQSETSV	3.877e-6
RPYRRESEI	3.461e-5
YPASPDSWV	0.0001112
SGSYLVTSV	0.0001258
GLMKRRSSV	0
LKSGRDSTV	0.0003449
ISFTQTSQF	6.749e-6
RRESYSTTV	0.0006987
TMFLRETSL	0.0002151
RPLRRESEI	3.748e-5
KLSSIESDV	0.003213
SRDRKETSI	0.0004401
